The reported numbers originate from paper PMC9482650.

target: DLG4_2, P78352; test: holdup assay; parameters: key: below the threshold = too weak to quantify, mostly under pKd 3.1 to 4; conditions: plain residues with an end cap or a label only (N-terminal biotin on a linker: ado-ado)
Sequence (P78352 155-259): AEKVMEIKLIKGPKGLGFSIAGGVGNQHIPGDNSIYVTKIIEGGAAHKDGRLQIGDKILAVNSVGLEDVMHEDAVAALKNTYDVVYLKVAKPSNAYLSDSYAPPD
reportedMetric: pKd

>>> print(df.to_string())
                        binder  reportedmeasurement
0   QRYPGNQTTC [CCL24, O00175]                 3.64
1  DLLGGGSDSI [TNRC6B, Q9UPQ9]                  3.5
2    THREVKFTSL [CD46, P15529]                  3.7
3   AHGSTRDQSI [KCNB1, Q14721]                 4.09
4   KLQNPNQSVV [TYRP1, P17643]                 4.11
5    GDSSRKEYFI [GYPC, P04921]                 3.61
6   QLGSPTADLA [SIPA1, Q96FS4]                 3.54
7  PLATCDETSI [SEMA4F, O95754]                 3.67
